biological target: T1, SARS-CoV-2 Spike RBD K417N (SARS-CoV-2, UniProt P0DTC2 319-541); assay: HTRF, soluble RBD construct
T1 construct: domain: RBD
Answer each item with its documented fold over background.
One number for each entry, in fold over background.

binder	unit.annotation	observed
PR201_00151 (antibody, V domains shown) VH: RVTLRESGPALVKPTQTLTLTCTFSGFSLNTSGMCVSWIRQPPGKALEWLARIDWDDDKYYSTSLETRLTISKDTSKNQVVLTMTNLDPVDTGTYYCARISIQSRGGGADYWGQGTLVTVSS VL: DIQMTQSPSSLSASVGDRVTITCRASQSISSYLHWYQQKSGKAPKLLIFVASTLQSGVPSRFSGSGSGTDFTLTISSLQPEDSAAYYCQQSYSPPWTFGQGTKVEIK	fold over background	1.09
PR200_00622 (antibody, V domains shown, also called IMM20253; PR200_00253) VH: QVQLVESGGGVVQPGRSLRLSCTASGFTFSTYGMHWVRQAPGKGLEWVAVISYDGSSKHYAESVKGRFTISRDNSNNTLYLQMNRLRAEDTAVYYCARDGQPPGWGNYFDYWGQGTLVTVAS VL: SYVLTQPPSVSVAPGKTARITCGGNGIGSKSVYWYQQKPGQAPEVVVYDDSDRPSGIPERFSGSNSGNTATLTISRVEAGDEADYYCQVWDSSSDPWVFGGGTKLTVL	fold over background	4.68

Next up:
What fold over background value was documented for this binder, PR197_00647 (antibody, V domains shown) VH: QVQLVESGGGVVQPGRSLRLSCAASGFTFSSYAMHWVRQAPGKGLQWVTLISYDGGDKYYADSVRGRFTISRDNSKNTLYLQMNSLRTEDTAVYYCARDRPQTGDWFPPIPTGVLDVWGQGTTVTVSS VL: DIQMTQSPSSLSASVGDRVTITCRASQGISNYLAWFQQKPGKAPKSLIYAASSLQSGVPSRFSGSESGTDFTLTISSLQPEDFATYYCQQYHSYPITFGQGTRLEIK ?
1.03
